target.entity: acetylcholine receptor
method.summary: SPR, AchR immobilised on CM5 chip, peptide at 10 uM
recorded.metric: Binding affinity (RU)

binder	unit.descriptor	reported.result
KTWMK [5mer-849]	RU	15
RMMFR [5mer-886]	RU	21

A = KETWR [5mer-1160]
B = KYSGK [5mer-1174]
Query: API: POST /compare with A and B ; response names the item with higher Binding affinity (RU). Answer = label.
Response: B
